Assay Notes: Cellular viability qHTS for adrenocortical cancer (ACC) cell line SW-13 (AID 1963989);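 further: cells grown in serum-free medium with ITS supplement; on the % scale 0 is the no-effect control and ±100 the full control effect; nearly all actives have a fitted effect of over 65% in size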
Cond: SW-13 ACC cells viability, CellTiter-Glo, 48 h; stronger effect = lower value
Records with an inconclusive call do not appear.
activity (max response) values for the compounds below.
Entry rule: numbers only, all in %.

Mol	activity (max response) / %
Cc1cc(-c2cc(OC(=O)c3ccccc3)ccc2Cl)cc2nnc(Nc3ccc(OCCN4CCCC4)cc3)nc12	9.34

Query string: Form field: reported activity (max response) of "CCCC(=O)OC[C@@H](OC(=O)CCC)[C@@H](OC(=O)CCC)[C@H](Cn1c2nc(=O)[nH]c(=O)c-2nc2cc(C)c(C)cc21)OC(=O)CCC"
Result string: -8.77

Query string: Input "Nc1ccc(/C=C/c2ccc(N)cc2S(=O)(=O)O)c(S(=O)(=O)O)c1"
Result string: 11.4

---

Assay Notes: Quantitative highthroughput screen to assess conditional lethalithy of NOMO1 cells grown in RPMI1640 with untreated serum (RPMI+s) (AID 1963876); further: nearly all actives have a fitted effect of over 35% in size;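 on viability: 100% = DMSO wells and 0% = empty wells without cells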
Cond: NOMO1 AML cells in RPMI+serum, CellTiter-Glo viability, 48 h; series mostly up to 45.8 µM
Inconclusive results are not listed. Activity calls are given as the source filed them. The call rests on the fitted dose curve; in most records, active means well fitted cell-killing curve with a large enough effect; inconclusive means small, poorly fitted or top-dose-only effect; inactive means flat fitted curve, though single readings scatter.
Hi there, use one of these labels in your reply, thanks! active, inactive

Below are worked cases with known answers.
Compound	Group
CC1(C)OC2CC3C4CC(F)C5=CC(=O)C=CC5(C)C4C(O)CC3(C)[C@]2(C(=O)CO)O1 (stereo partly specified)	inactive
O=C1NC(=O)C(c2cnc3ccccn23)=C1c1cn2c3c(cc(F)cc13)CN(C(=O)N1CCCCC1)CC2	inactive
CCCCOCCOc1nc(-c2ccc(C(=O)O)c(F)c2)sc1C	inactive
COc1cc(OC)c(NC(=O)Nc2cc(C)on2)cc1Cl	inactive
Cc1ccc(/C=N/NC(=O)c2ccccc2Oc2ccccc2)o1	inactive

Query string: Tell me the assay call for COc1cc2nc(N3CCN(C(=O)C4CCCO4)CC3)nc(N)c2cc1OC (stereo unspecified) please.
Result string: inactive

Query string: Input "CC#CCn1c(N2CCC[C@@H](N)C2)nc2c1c(=O)n(Cc1nc(C)c3ccccc3n1)c(=O)n2C"
Result string: inactive

Query string: Input "CN(NC(=O)CC(=O)NN(C)C(=S)c1ccccc1)C(=S)c1ccccc1"
Result string: active

Query string: Input "Cc1cc(Cl)ccc1OCCCC(=O)NO"
Result string: active

Query string: Input "O=C1NCCc2[nH]c(-c3ccncc3)cc21"
Result string: active

Query string: Input "OCCn1cc(-c2cnc3nnn(Cc4ccc5ncccc5c4)c3n2)cn1"
Result string: inactive

---

Assay Notes: Quantitative highthroughput screen to assess conditional lethalithy of NOMO1 cells grown in RPMI1640 with dialyzed fetal bovine serum (RPMI+ds) (AID 1963877); further: nearly all actives have a fitted effect of over 30% in size;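 on viability: 100% = DMSO control wells and 0% = empty wells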
Cond: NOMO1 in RPMI+dialyzed FBS viability, ATP luminescence, 48 h; series mostly up to 45.8 µM
Records with an inconclusive call do not appear. The source made the active and inactive calls. Calls come from the whole dose curve; as a rule, active = well fitted cell-killing curve with a large enough effect; inconclusive = small, poorly fitted or top-dose-only effect; inactive = flat fitted curve, though single readings scatter.
Hi there, use one of these labels in your reply, thanks! active, inactive

Below are worked cases with known answers.
Mol	Group
c1cc(N[C@@H]2CCNC2)nc(-c2cnc3ccc(-c4cn[nH]c4)cn23)c1	active
CN(C)CCC=C1c2ccccc2COc2ccc(CC(=O)O)cc21	inactive

Query string: Tell me the assay call for "CC(C)[C@@H](CS(=O)(=O)C(C)C)N1C(=O)[C@@](C)(CC(=O)O)C[C@H](c2cccc(Cl)c2)[C@H]1c1ccc(Cl)cc1" please.
Result string: active

Query string: Input "Cc1cc2cc3c(C)cc(=O)oc3c(C)c2o1"
Result string: inactive

Query string: Input "COc1cc(F)c(F)c(Nc2ccc(I)cc2F)c1NS(=O)(=O)C1(C[C@H](O)CO)CC1"
Result string: inactive

Query string: Input "CC[C@H]1OC(=O)[C@H](C)[C@@H](O[C@H]2C[C@@](C)(OC)[C@@H](O)[C@H](C)O2)[C@H](C)[C@@H](O[C@@H]2O[C@H](C)C[C@H](N(C)C)[C@@H]2O)[C@](C)(OC)C[C@@H](C)C(=O)[C@H](C)[C@@H](O)[C@]1(C)O"
Result string: inactive

---

Assay Notes: Quantitative highthroughput screen to assess conditional lethalithy of P12 Ichikawa cells grown in RPMI1640 with dialyzed fetal bovine serum (RPMI+ds) (AID 1963880); further: nearly all actives have a fitted effect of over 35% in size;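 on viability: 100% = DMSO wells and 0% = empty wells on each plate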
Cond: ATP luminescence, 48 h; P12-Ichikawa viability; series mostly up to 45.8 µM
Inconclusive results are not listed. The source made the active and inactive calls. Calls come from the whole dose curve; as a rule, active = well fitted cell-killing curve with a large enough effect; inconclusive = small, poorly fitted or top-dose-only effect; inactive = flat fitted curve, though single readings scatter.
Hi there, use one of these labels in your reply, thanks! active, inactive

Below are worked cases with known answers.
Molecule	Group
O=C(C=CC=Cc1ccc2c(c1)OCO2)N1CCCCC1	inactive
COc1ccccc1N1CCN(CCN(C(=O)C2CCCCC2)c2ccccn2)CC1	inactive
CC(=O)O[C@]1(C(C)=O)CC[C@@H]2[C@@H]3C[C@H](C)C4=CC(=O)CC[C@]4(C)[C@H]3CC[C@@]21C	inactive

Query string: Tell me the assay call for "CN[C@@H]1C[C@H]2O[C@@](C)([C@H]1OC)n1c3ccccc3c3c4c(c5c6ccccc6n2c5c31)C(=O)N[C@H]4O" please.
Result string: active

---

Assay Notes: Quantitative highthroughput screen to assess conditional lethalithy of SEM cells grown in RPMI1640 with unreated serum (RPMI+s) (AID 1963883); further: nearly all actives have a fitted effect of over 35% in size; further: potency means the concentration at half of the fitted maximal effect;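 on viability: 100% = DMSO wells and 0% = empty wells without cells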
Cond: SEM B-ALL cells, CellTiter-Glo viability, 48 h; series mostly up to 45.8 µM
Procedure: Assay Provider: Jason Cantor Ph.D. Department of Biochemistry University of Wisconsin-Madison, Madison, WI, USA Chemical screening studies have identified drug sensitivities across hundreds of cancer cell lines but most putative therapeutics fail to translate. […] Sets of conditional anticancer compounds spanned phases of clinical development and included non-oncology drugs were assessed. […] 6; Detection; Luminescence, Viewlux PerkinElmer. […]
Results filed as inconclusive are left out. Active and inactive are the calls of the source. The call rests on the fitted dose curve; in most records, active means well fitted cell-killing curve with a large enough effect; inconclusive means small, poorly fitted or top-dose-only effect, or effect the other way; inactive means no such curve, though single readings can be large or run the other way.
Readout Name: Potency

Molecule	Experimental Value
O=C1NC(=O)[C@@H](c2cn3c4c(cccc24)CCC3)[C@H]1c1c[nH]c2ccccc12	590 nM (active)
CC1(CN2CCC(n3c(=O)[nH]c4ccccc43)CC2)OCc2ccccc2-n2cccc21 (stereo not given)	inactive
O=C(NNC(=O)c1ccc(CNS(=O)(=O)c2ccc(F)c(Cl)c2)cc1)c1ccccc1	inactive
COc1cc(C)c(Sc2cnc(NC(=O)c3ccc(CNC(C)C(C)(C)C)cc3)s2)cc1C(=O)N1CCN(C(C)=O)CC1 (stereo not given)	4180 nM (active)
COc1cc2nc(-c3ccc(N4CCN(C)CC4)cc3)nc(NCCN3CCOCC3)c2cc1OC	469 nM (active)

Query string: Form field: reported Potency of "Cc1cc(=O)oc2cc(O)ccc12"
Result string: inactive

Query string: Input "CN(C)CCN(Cc1ccc(Cl)cc1)c1ccccn1"
Result string: inactive

Query string: Input "O=c1[nH]nc(OCCCc2ccc(Cl)cc2)c(NCc2cccnc2)c1Br"
Result string: 6620 nM (active)

Query string: Input "CN(C)c1nc(N(C)C)nc(N(C)C)n1"
Result string: inactive

Query string: Input "c1ccc2c(CCNc3ccc(Nc4ccncc4)cc3)c[nH]c2c1"
Result string: 372 nM (active)

Query string: Input "CC1=C(CO)C(=O)O[C@@H]([C@@H](C)[C@H]2CC[C@H]3[C@@H]4C[C@H]5O[C@]56[C@@H](O)C=CC(=O)[C@]6(C)[C@@H]4CC[C@]23C)C1"
Result string: 235 nM (active)

Query string: Input "O=c1cc(-c2ccccc2)oc2cc(O)c(O)c(O)c12"
Result string: 4180 nM (active)

Query string: Input "Cc1ccc(NC(=O)Nc2cc(C(F)(F)F)ccc2F)cc1Nc1ccc2c(c1)NC(=O)C2=Cc1ccc[nH]1"
Result string: 18700 nM (active)

Query string: Input "CCOc1ccc(Nc2nc(-c3c(C)nc4ccccn34)cs2)cc1"
Result string: 46.9 nM (active)

Query string: Input "CN(Cc1cnc2nc(N)nc(N)c2n1)c1ccc(C(=O)N[C@@H](CCC(=O)O)C(=O)O)cc1"
Result string: 1050 nM (active)

Query string: Input CC(NCCc1ccc(O)cc1)C(O)c1ccc(O)cc1 (stereo not given)
Result string: inactive

Query string: Input CCN1CCCC1CNC(=O)c1cc(S(=O)(=O)CC)c(N)cc1OC (stereo not given)
Result string: inactive

Query string: Input "CN(CC=CC#CC(C)(C)C)Cc1cccc2ccccc12"
Result string: inactive

Query string: Input "Cc1cnc(C(=O)O)c[n+]1[O-]"
Result string: inactive

Query string: Input "COc1cc(C(C)C)c2c(c1)S(=O)(=O)N(COc1cc(=O)n3cccc(OCCN4CCCCC4)c3n1)C2=O"
Result string: inactive

Query string: Input "CC(C)N(CC[C@H](c1ccccc1)c1cc(CO)ccc1O)C(C)C"
Result string: inactive

Query string: Input "C=C(C)[C@@H]1CC[C@]2(C)CC[C@]3(C)[C@H](CC[C@@H]4[C@@]5(C)CC[C@H](O)C(C)(C)[C@H]5CC[C@]43C)[C@@H]12"
Result string: inactive

Query string: Input CC(=O)C1=C(O)C=C2Oc3c(C(C)=O)c(O)c(C)c(O)c3C2(C)C1=O (stereo not given)
Result string: inactive

Query string: Input "COc1cc2c(cc1OC)CC(=O)N(CCCN(C)C[C@H]1Cc3cc(OC)c(OC)cc31)CC2"
Result string: inactive

Query string: Input "CCCOc1ccc2nc(NC(=O)OC)[nH]c2c1"
Result string: 14.8 nM (active)
